This collection of values is drawn from the Human Domainome abundance scans (Beltran et al. 2025).

Assignment: determine reported abundance fitness for the given variants.
B1: Ankyrin repeat and SAM domain-containing protein 6, residues 774 to 836; numbered along this chain, Q68DC2 (parent)
chain: DEDELTGILKKLSLEKYQPIFEEQEVDMEAFLTLTDGDLKELGIKTDGSRQQILAAISELNAG

Variants of: B1
PROCEDURE DETAILS: abundance fitness (aPCA) (normalised: wild type 0, dead -1); higher = more abundant; growth selection in yeast, the domain comes from the species named
EXPERIMENTAL PARAMETERS: Homo sapiens
Reply with the value as a number alone.

Consider the variant `T33H` and give its measured abundance fitness.
-0.012

What measured abundance fitness goes with `E23S` ?
-0.168

Requested read-out: abundance fitness. Entry: `N61A`
-0.148

Using the record for `A56S` , report its abundance fitness.
-0.157

Given the variant `L14T` , what is its reported abundance fitness?
-1.37

Which abundance fitness value belongs to `V26L` ?
-0.145

abundance fitness lookup needed for `L34E` , thanks.
-0.526

Entry `I44S` has what abundance fitness?
-0.651

# lookup: abundance fitness of `K10N`
-0.481

Which value of abundance fitness has been reported for `E2C` in the records?
0.142

Data request, read-out abundance fitness, for `R50M`
-0.722

What measured abundance fitness goes with `L54A` ?
-0.359

What value of abundance fitness has been recorded for this entry: `E23M`
-0.318

Name the reported abundance fitness value associated with the variant `S49E`
0.181

Can you look up the measured abundance fitness of `G43P` for me?
-0.683

So what does the record say about abundance fitness for `S49T` ?
-0.054

Quick one: abundance fitness for `K40H` ?
-0.286

# abundance fitness lookup, item `S49M`
-0.068

Tell me the measured abundance fitness of `D3P` , please.
-0.177

What value of abundance fitness has been reported for the following variant? `L14V`
-0.655

Given the variant `L9T` , what is its reported abundance fitness?
-1.29

Request the reported abundance fitness associated with `K11M`
-0.195

Give the measured abundance fitness of `K11N` .
-0.254

// query abundance fitness value for entry `E25W`
-0.449

Would you mind telling me what abundance fitness value was observed for `L12G` ?
-0.927

Given the entry `T46P` , report its measured abundance fitness.
-0.048

Requested field: abundance fitness. Item: `E4M`
-0.27

# abundance fitness lookup, item `P19Y`
-0.234

So what does the record say about abundance fitness for `I53R` ?
-0.559

Name the reported abundance fitness value associated with the variant `D3A`
-0.157

What measured abundance fitness goes with `I8A` ?
0.158

abundance fitness lookup needed for `E59W` , thanks.
-0.35

Name the reported abundance fitness value associated with the variant `D3M`
0.209

// abundance fitness lookup, key: `Q51L`
-0.252

Report abundance fitness for `D47W` please.
-0.309

Name the recorded abundance fitness for `I53F` .
-0.432

Need abundance fitness, item `K10R`
-0.327

Suppose we examine the variant `G43L` ; what abundance fitness value has been reported?
-0.655

For the variant shown here, `I44T` , give the reported abundance fitness.
-0.555

Quick one: abundance fitness of `A62H` ?
-0.074

Which abundance fitness is listed for `I57L` ?
-0.257

Give its abundance fitness value. Item: `Q51V`
-0.233

Which abundance fitness value is on record for `L60I` ?
-0.073

GET /values?readout=abundance fitness&item= `T33W`
-0.49

Fill blank: measured abundance fitness of the variant `L60M` is ____.
-0.054

Requested field: abundance fitness. Item: `F31R`
-0.426

What does the data say about its abundance fitness? Entry: `E41F`
-0.376

What does the data say about its abundance fitness? Entry: `K11D`
-0.166

Give its abundance fitness value. Item: `G43W`
-1.16

Can you share its abundance fitness? I mean this variant: `E4Y`
-0.511

Which abundance fitness value is on record for `L39W` ?
-1

Please give the measured abundance fitness for this variant: `S58F`
-0.434

What value of abundance fitness has been recorded for this entry: `K45T`
-0.02

Data request, read-out abundance fitness, for `E22M`
-0.091

// query abundance fitness value for entry `V26W`
-0.405

# query: abundance fitness of entry `G7D`
0.039

Bench note: what abundance fitness did `T33S` show?
-0.023

Value lookup for abundance fitness; key = `A55P`
-0.528

Dear colleague, I am looking for the recorded abundance fitness of the following variant: `A62R`
-0.048

What measured abundance fitness goes with `L5H` ?
-0.839

Looking for the measured abundance fitness of `E25M` , can you help?
-0.038

Entry `A55I` has what abundance fitness?
-0.203

Would you mind telling me what abundance fitness value was observed for `N61K` ?
0.071

For the variant shown here, `M28G` , give the reported abundance fitness.
-0.213

// query abundance fitness value for entry `K40E`
-0.041

Request the reported abundance fitness associated with `I20N`
-0.015

Look at this variant and give its reported abundance fitness. `A56V`
-0.133

Could you share which abundance fitness value was measured for `D1I` ?
0.158

Item `L54T` has what recorded abundance fitness?
-0.312

Would you kindly share the measured abundance fitness for `I57C` ?
-0.277

Item under review: `D1Y` . Reported abundance fitness?
0.031

Returns the measured abundance fitness for the input variant. Input: `E22L`
-0.179

Returns the measured abundance fitness for the input variant. Input: `Q51M`
-0.215

Give the measured abundance fitness of `S49L` .
-0.191

Can you share its abundance fitness? I mean this variant: `K11H`
-0.621

Bench note: what abundance fitness did `I20R` show?
-0.046

Fill in: abundance fitness of `E41L` is ___
-0.205

What value of abundance fitness has been reported for the following variant? `E25K`
0.301

Using the record for `E23K` , report its abundance fitness.
-0.085

State the recorded abundance fitness for this entry: `K16Y`
-0.251

So what does the record say about abundance fitness for `Q51G` ?
-0.216

GET /values?readout=abundance fitness&item= `D36F`
-1.02

What does the data say about its abundance fitness? Entry: `Q52C`
-0.12

For the variant `T35N` , what abundance fitness is on record?
-0.078

Would you mind telling me what abundance fitness value was observed for `P19Q` ?
-0.21

abundance fitness lookup needed for `K40F` , thanks.
-0.326

Which abundance fitness reading was recorded for the variant `Q52P` ?
-0.715

Sample `M28K` — what was its abundance fitness?
-0.025

For the variant `R50T` , what abundance fitness is on record?
-0.71

I would be grateful if you could share the reported abundance fitness for `A62T` .
-0.161

Entry `L32R` : reported abundance fitness = ?
0.039
